Tested on: OVCAR-4 ovarian
Experiment: NCI tumour cell line growth inhibition, 48 h
Where a SMILES comes first, the peptide text is derived from it. The star is where a group is joined. Cbz = O=C(OCc1ccccc1)*; NHNH2 = NN*
Below is a list of entries, each paired with its recorded TGI value.

// below: answered compounds
| compound | val |
| --- | --- |
| C=C1C(=O)O[C@H]2[C@H]1CC/C(Cn1cc(-c3ccc(OC)cc3)nn1)=C\CC[C@@]1(C)O[C@@H]21 | 3.33 µM |
| COC(=O)CC(NC(=O)OCc1ccccc1)C(=O)NC(CC(=O)OC)C(=O)NC(CC(=O)OC)C(=O)NC(CC(=O)OC)C(=O)NC(CC(=O)OC)C(=O)NC(CC(=O)OC)C(=O)NN (stereo unspecified) (Cbz-D(OMe)D(OMe)D(OMe)D(OMe)D(OMe)D(OMe)-NHNH2; configuration not given here) | > 100 µM |
| CCC(=O)Oc1c2ccsc2c(OC(=O)CC)c2ccsc12 | 2.39 µM |

Per the record, CN(C)S(=O)(=O)Nc1nnc(S(N)(=O)=O)s1 has TGI of > 100 µM

Per the record, C=CCOCCCCC(C(C)=O)C(=O)OC (stereo unspecified) has TGI of > 100 µM

Per the record, C[C@]12CC[C@H]3[C@@H](CC=C4C[C@@H](O)CC[C@@]43C)[C@@H]1CC[C@@H]2N(CCO)CCO has TGI of > 100 µM

Per the record, COC(=O)c1c/c(=N\NC(=O)CC(=O)Nc2ccccc2OC)c2ccccc2o1 has TGI of > 100 µM

Per the record, COc1c(C)c2nc3ccccc3[nH]c2c2c(=O)ccnc12 has TGI of > 100 µM

----------
Test system: U251 CNS
Experiment: NCI tumour cell line growth inhibition, 48 h
Below is a list of entries, each paired with its recorded TGI value.
Just the number in µM, nothing appended.

// below: answered compounds
| compound | TGI [µM] |
| --- | --- |
| O=C1C=C(c2ccccc2)O/C1=C/C(=O)c1ccc(Cl)cc1 | 29.1 |
| O/N=C/C1c2ccccc2-c2ccccc21 | 44 |

Next compound, TGI to be filled in.
Per the record, OC1(c2ccc(Cl)cc2)c2ccc3ccccc3c2C2=N[C@H]3CCCC[C@@H]3N21 (stereo partly specified) has TGI of 27.9

----------
Test system: HT29 colon
Assay: NCI tumour cell line growth inhibition, 48 h
quantity.name: TGI

| molecule | tgt | TGI |
| --- | --- | --- |
| CSC(C1c2ccccc2N(c2ccc(C)cc2)C2=NC(=O)N(C)C(=O)C21Cl)S(=O)(=O)c1ccc(C)cc1 (stereo not drawn) | HT29 colon | 57 µM |
| COc1cc(C2=NOC(c3cc(OC)c(OC)c(OC)c3)C2)ccc1OCCCCOc1cc2c(cc1OC)C(=O)N1CCC[C@H]1C=N2 (stereo partly drawn) | HT29 colon | > 33.2 µM |
| COc1cc(C2NC(=O)c3ccccc3N2)ccc1OCCCCCOc1c(OC)cc(C2=NOC(c3cc(OC)c(OC)c(OC)c3)C2)cc1OC (stereo not drawn) | HT29 colon | > 100 µM |
| O=C(Nc1ccccc1C(=O)NCCCO)/C(=C/c1ccccc1O)NC(=O)c1ccccc1 | HT29 colon | > 100 µM |
| O=c1c2cc([N+](=O)[O-])ccc2sc2ccsc12 | HT29 colon | > 100 µM |

Per the record, Clc1ccc(OCc2nnc(CCCCCCCCc3nnc(COc4ccc(Cl)cc4)n3Nc3ccccc3)n2Nc2ccccc2)cc1 has TGI of 34.3 µM

Per the record, FC(F)(F)c1cccc(Nc2nccc(-c3cnn4nc(-c5ccccc5)ccc34)n2)c1 has TGI of > 18.4 µM

Per the record, C=CC(=O)N1CC2(CCN(c3nc(OC4CCN(CCCOC)CC4)nc4c(OCC(F)(F)F)c(-c5c(C)ccc6[nH]ncc56)c(C5CC5)cc34)CC2)C1 has TGI of 5.83 µM

----------
Test system: BT-549 breast
Assay: NCI tumour cell line growth inhibition, 48 h; in the data active means GI50 below about 0.43 µM; inactive means the rest
Give one outcome, nothing more. List: active, inactive

| molecule | tgt | class |
| --- | --- | --- |
| N#Cc1c(-c2ccc(F)cc2)nc(N/N=C/c2c[nH]c3ccccc23)nc1N1CCOCC1 | BT-549 breast | inactive |
| Cc1ccc(NC(=O)c2cccc(N(C)C)c2)cc1NC(=O)c1ccc(O)cc1 | BT-549 breast | inactive |
| CC1=CC(=Nc2ccc(N(CCCl)CCCl)cc2)C=C(C)C1=O | BT-549 breast | inactive |
| OCc1c[nH]c2ccccc12 | BT-549 breast | inactive |
| CS(=O)(=O)c1ccc([C@H]2O[C@@H](CO)C[C@]2(O)c2ccc(S(C)(=O)=O)cc2)cc1 | BT-549 breast | inactive |
| O=C(/C(Br)=C/c1ccccc1)c1ccccc1 | BT-549 breast | inactive |

Problem: Given CN1CCN(C(=O)OCc2nc3c(N4CCOCC4)nc(Cl)nc3n2C)CC1 , state the outcome it received in this test.
Solution: inactive

Problem: Given COc1cc(C2NC(=O)c3ccccc3N2)ccc1OCCCCCOc1c(OC)cc(C2=NOC(c3cc(OC)c(OC)c(OC)c3)C2)cc1OC (centres undefined) , state the outcome it received in this test.
Solution: inactive

Problem: Given CC[C@]1(O)C[C@@H]2CN(CCc3c([nH]c4ccccc34)[C@@](C(=O)OC)(c3cc4c(cc3OC)N(C)[C@H]3[C@@](O)(C(=O)OC)[C@H](OC(C)=O)[C@]5(CC)C=CCN6CC[C@]43[C@@H]65)C2)C1 , state the outcome it received in this test.
Solution: active

Problem: Given COC(=O)[C@]12CC[C@@H](C)[C@H](C)[C@@H]1C1=CC[C@@H]3[C@@]4(C)C/C(=N\O)[C@H](O)[C@@]5(C)COC(=C45)C[C@@]3(C)[C@]1(C)CC2 , state the outcome it received in this test.
Solution: inactive

Problem: Given N#CSc1c[nH]c2cccc(/C=C/C(=O)/C=C(/C=C/c3cccc4[nH]cc(SC#N)c34)OB(F)F)c12 , state the outcome it received in this test.
Solution: inactive

Problem: Given Oc1ccc(NCc2nc3ccccc3[nH]2)cc1 , state the outcome it received in this test.
Solution: inactive

Problem: Given NC(=O)c1ccc(I)c(N)c1 , state the outcome it received in this test.
Solution: inactive

Problem: Given O=c1[nH]ncc(Br)c1Br , state the outcome it received in this test.
Solution: inactive

----------
System: K-562 leukemia
Test: NCI tumour cell line growth inhibition, 48 h
Below is a list of entries, each paired with its recorded TGI value.

// below: answered compounds
| compound | TGI |
| --- | --- |
| C=C1C(=O)O[C@@]23C1CC[C@@H](C)C2CC[C@@]1(C)OC31 (some centres not stated) | 66.1 µM |
| CC1(C)C=C(S(=O)(=O)c2ccccc2)Oc2ccccc2O1 | > 100 µM |
| NC(=O)C(=O)N/N=C(\CC1(O)C(=O)Nc2ccccc21)c1ccc2ccccc2c1 (configuration not stated) | 61.7 µM |
| N#Cc1cc2c(cc1Cl)Sc1nccn1S2(=O)=O | 17.2 µM |

Per the record, CC(=O)CNC(=O)OC(C)(C)C has TGI of > 100 µM

Per the record, CCOn1c(C2(CC3CCN(C(=O)c4ccccc4)CC3)OCCO2)cc2ccccc21 has TGI of 38.2 µM

Per the record, CCOC(=O)/C(C#N)=N\Nc1ccc(-n2c(C)nc3ccccc3c2=O)cc1 has TGI of > 100 µM

Per the record, COc1ccc(NC2=CC(=O)C(=O)c3ccccc32)nn1 has TGI of 1.31 µM

Per the record, Brc1cccc(C=NC23CC4CC(CC(C4)C2)C3)c1 has TGI of > 100 µM

Per the record, CC(=O)OC/C=C(/C=C/CNC1CCCCC1)OC(C)=O has TGI of 32 µM

Per the record, CC(C)(C)C1CCC2(CC1)c1[nH]c3ccccc3c1C1(CCC(C(C)(C)C)CC1)c1[nH]c3ccccc3c12 (configuration not stated) has TGI of > 100 µM

Per the record, Cn1c(=O)c2[nH]c(SCc3ccccn3)nc2n(C)c1=S has TGI of > 100 µM

----------
System: SF-295 CNS
Test: NCI tumour cell line growth inhibition, 48 h
Below is a list of entries, each paired with its recorded TGI value.
Just the number in µM, nothing appended.

// below: answered compounds
| compound | quantity.name | val |
| --- | --- | --- |
| CC(C)(C)[Si](C)(C)OCC1OC(n2cnc3c(N)ncnc32)C(O[Si](C)(C)C(C)(C)C)C1O[Si](C)(C)C(C)(C)C (stereo unspecified) | TGI | 62.3 |
| O=C(/C(Br)=C/c1ccccc1)c1ccccc1 | TGI | 25.9 |
| N#Cc1ccc(NC(=O)Nc2ccc(Oc3ccc(NC(=O)Nc4ccc(C#N)cc4)cc3)cc2)cc1 | TGI | 13.6 |

Per the record, CN1CCN(C(=O)OCc2nc3c(N4CCOCC4)nc(Cl)nc3n2C)CC1 has TGI of 20.7

Per the record, Brc1ccc2c(-c3csc(-c4c[nH]c5ccc(Br)cc45)n3)c[nH]c2c1 has TGI of 10.9

Per the record, OCc1c[nH]c2ccccc12 has TGI of 40.9

Per the record, C=C1C(=O)O[C@H]2[C@H]1CC/C(COC(=O)c1ccc3ccccc3c1)=C\CC[C@@]1(C)O[C@@H]21 has TGI of 3.06

Per the record, O=[N+]([O-])c1ccc(NC(=S)N=Nc2c(O)[nH]c3ccc(Br)cc23)cc1 has TGI of 22

Per the record, C=CCCCCCCCCC(=O)[O][Sn]([CH2]CCC)([CH2]CCC)[CH2]CCC has TGI of 0.337

Per the record, COc1ccc(NC2=CC(=O)C(=O)c3ccccc32)nn1 has TGI of 2.15
